tgt: T1, human BMP2 (human, UniProt P12643 283-396)
T1 construct: Bone morphogenetic protein 2 (BMP2), human; it speaks of BMP ligands in general as dimeric
measurement description: SPR; equilibrium binding, Biacore T200, 25 °C; BMP2, BMP7, GDF5 or CHRDL2 amine-coupled to a CM5 chip, TWSG1 proteins as analytes; 0.15 M NaCl, 20 mM HEPES pH 7.5, 2 mM CaCl2, 0.005% Tween 20; 1:1 binding isotherm
condition: both partners purified
experimental endpoint: Kd (nM)
// return numeric value only (unit: nM, not printed)

Q. Any idea what Kd was measured for human TWSG1 N-terminal domain (TWSG1 NTD, C26–S83) (domain or fragment, residues of the vector between the secretion signal and TWSG1 NTD; Twisted gastrulation (TWSG1), human, N-terminal domain, residues C26–S83; Treated with endoglycosidase F1 in the purification described; The structural description gives the NTD as Cys26–Arg80; source: expressed and purified from dialyzed media similar to full-length TWSG1 (IMAC, HRV 3C cleavage, IMAC, SEC); not shown: mono Venus …) ETGCNKALCASDVSKCLIQELCQCRPGEGNCSCCKECMLCLGALWDECCDCVGMCNPRNYS ?
A. 1010

The reported measurements were obtained from paper PMC11167000.
